Values from PubChem BioAssay (NCI)

- Tested on: UO-31 renal
- measurement.protocol: NCI-60 one-dose screen, 48 h
- condition.parameters: 10 µM unless noted
About 83,000 compounds went through this panel and 20% of them were active in at least one assay; those are over-represented in the sample as a whole. Activity calls are given as the source filed them. How the source made its calls: active means growth percent below 10; inactive means the rest.
Allowed answers: t for active, f for inactive

Example entries begin here.
{"compound": "COc1cccc([C@H]2c3[nH]c4ccccc4c3C[C@H]3C(=O)N(CCCCCCC(=O)NO)CC(=O)N23)c1", "discrete.label": "f"}
{"compound": "Clc1ccc2c(c1)N(c1ncnc3ccc(-c4cnc5[nH]ncc5c4)cc13)CC2", "discrete.label": "t"}
{"compound": "CCOC(=O)c1c(NC(=O)c2ccc(C(C)C)cc2)sc2c(CN(C)C)c(O)ccc12", "discrete.label": "f"}
{"compound": "O=C(Cn1cc(CN2C(=O)c3ccccc3S2(=O)=O)nn1)Nc1nc2ccccc2s1", "discrete.label": "f"}

input: Which outcome did this test record for the compound CCOC(=O)c1cn2ncnc(Oc3ccc(NC(=O)NC4CCCCC4)c(Cl)c3)c2c1C ?
output: f

input: Which outcome did this test record for the compound CC[C@]12C=CCN3CC[C@@]4(c5cc(NC(=O)CCC(=O)OCc6cn(Cc7ccc(F)cc7)nn6)c(OC)cc5N(C)[C@H]4[C@@](O)(C(=O)OC)[C@@H]1OC(C)=O)[C@@H]32 ?
output: f

input: Which outcome did this test record for the compound Cc1c(-c2nc3ccc(F)cc3c(=O)[nH]2)c2ccccc2n1C ?
output: f

input: Which outcome did this test record for the compound COc1ccc2c(c1)[n+]([O-])c(C(=O)/C=C/C=C(\Cl)c1cc(OC)c(OC)c(OC)c1)c(C)[n+]2[O-] ?
output: f

input: Which outcome did this test record for the compound C=C1C(=O)O[C@H]2[C@H]1CC/C(COC(=O)NCc1cc[nH]c1)=C\CC[C@@]1(C)O[C@@H]21 ?
output: f
